Values were extracted from patent EP4477653A1.

assay: LogD (HPLC); format: physicochemical; settings: by HPLC; Table 2
Class membership depends on chromatographic logD alone; the intervals are bucket 1 (below 3), bucket 2 (3 to below 4), bucket 3 (4 or more)

>>> group_label("CC(C)c1nnc2c(NCc3ccccc3)cc(NCc3ccccn3)nn12")
"bucket 1"
>>> group_label("CC(C)c1nnc2c(NCc3ccccc3)cc(NCc3nccn3C)nn12")
"bucket 1"
>>> group_label("CC(C)c1nnc2c(NCc3ccccc3)cc(NC3CCCCC3O)nn12 (racemic)")
"bucket 1"
>>> group_label("CC(C)c1nnc2c(NCc3ccccc3)cc(NCC3(C)CCCCC3)nn12")
"bucket 3"
>>> group_label("CC(C)c1nnc2c(NCc3ccccc3)cc(NCc3ccccc3)nn12")
"bucket 2"
>>> group_label("CC(C)c1nnc2c(NCc3ccccc3)cc(NC3CCC3)nn12")
"bucket 2"
>>> group_label("CC(C)c1nnc2c(NCc3ccccc3)cc(NCc3cnn(C)c3)nn12")
"bucket 1"
>>> group_label("CC(C)c1nnc2c(NCc3ccccc3)cc(NCC3CCCO3)nn12 (racemic)")
"bucket 1"
>>> group_label("CC(C)c1nnc2c(NCc3ccccc3)cc(NC3CCCCCC3)nn12")
"bucket 3"
>>> group_label("CC(C)c1nnc2c(NCc3ccccc3)cc(Nc3nccn3C)nn12")
"bucket 1"
>>> group_label("CC(C)c1nnc2c(NCc3ccccc3)cc(NC34CC5CC(CC(C5)C3)C4)nn12")
"bucket 3"
>>> group_label("CC(C)c1nnc2c(NCc3ccccc3)cc(N[C@H]3CC[C@H](O)CC3)nn12")
"bucket 1"
>>> group_label("CC(C)c1nnc2c(NCc3ccccc3)cc(NCCOc3ccccc3)nn12")
"bucket 2"
>>> group_label("CC(C)c1nnc2c(NCc3ccccc3)cc(NCC3CCC3)nn12")
"bucket 2"
>>> group_label("CC(C)c1nnc2c(NCc3ccccc3)cc(NC3CCCC3)nn12")
"bucket 2"

----------
Target: human recombinant A3AR (expressed in HEK-293 cells) (Homo sapiens, UniProt P0DMS8)
Construct: host or cells: HEK-293 cells
Sequence (P0DMS8 1-318): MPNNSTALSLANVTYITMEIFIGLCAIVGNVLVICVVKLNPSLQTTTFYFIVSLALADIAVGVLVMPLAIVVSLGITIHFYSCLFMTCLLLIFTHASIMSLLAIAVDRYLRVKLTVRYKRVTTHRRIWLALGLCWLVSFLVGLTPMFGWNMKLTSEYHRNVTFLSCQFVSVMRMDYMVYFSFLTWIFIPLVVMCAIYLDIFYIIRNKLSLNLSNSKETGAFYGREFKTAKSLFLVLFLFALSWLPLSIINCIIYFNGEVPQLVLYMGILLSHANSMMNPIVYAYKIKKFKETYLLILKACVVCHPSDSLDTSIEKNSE
Experiment: Adenosine receptors antagonism assay (Eurofins), [125I]-AB-MECA radioligand competition
Format: binding
Details: [125I]-AB-MECA 0.15 nM, r.t., 120 min; IC50 from dose-response curves; read-out: Potency Class A3AR
pIC50: −log10 of the molar value.
readout: pIC50

>>> experimental_value("CC(C)c1nnc2c(NCc3ccccc3O)cc(NC3CCOCC3)nn12 [compound 44]")
"7.00 to 8.00"
>>> experimental_value("CC(C)c1nnc2c(NCc3ccccc3)cc(NCCO)nn12 [compound 11]")
"6.00 to 7.00"
>>> experimental_value("CCC(CC)Nc1cc(NCc2ccccn2)c2nnc(C(C)C)n2n1 [compound 51]")
"8.00 to 9.00"
